System: ATP;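 further: ATP exposure 15 min at 22 °C before imaging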
procedure summary: switch fluorescence ratio, 500 uM ATP over buffer (Cy3 cluster intensity, sum of 5 cycles each) (fold (ratio)); higher = stronger signal-on switching upon ATP binding; sequences stand for … in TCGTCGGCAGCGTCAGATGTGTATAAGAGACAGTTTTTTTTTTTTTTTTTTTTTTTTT…TC
measurement parameters: aptamer strand: ATP DNA aptamer (quencher-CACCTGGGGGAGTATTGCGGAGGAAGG + anchor), 100 nM annealed; ATP concentration: 500 uM
Would you kindly list switch fluorescence ratio for each of these sequences?
Answers are plain numbers.

Use the examples below as a reference point.
Prompt: For the sequence shown here, `GTTCACTGGG` , give the reported switch fluorescence ratio.
Completion: 0.994

Prompt: Find the recorded switch fluorescence ratio belonging to `CGGTCTCATC` and report it.
Completion: 1.02

Prompt: Would you kindly share the measured switch fluorescence ratio for `TCCTGGGTTG` ?
Completion: 0.99

Prompt: For the sequence shown here, `AGGCAGTTTC` , give the reported switch fluorescence ratio.
Completion: 0.988

Prompt: Recorded switch fluorescence ratio for `GGGCTCTAAA` , please?
Completion: 1

Hello, I would appreciate it if you could give switch fluorescence ratio for each entry below.
1. TGCCATCCGA
2. GGTACAAGG
3. CTGGATTGAG
4. GATATGGATT

Completion:
1.09
1.01
0.956
0.977

Each sequence below has a recorded value; state its switch fluorescence ratio.
1. TCGTTGAACG
2. TGCTGTACGG
3. GTTTTGGGGA
4. TCGTAAAGGA

Completion:
1: 0.973; 2: 1.01; 3: 0.996; 4: 1.03

For every record below, what is its switch fluorescence ratio?
1. TACTATGTTG
2. AAAGTCTTT

Completion:
[1.02, 1.02]

Please state, for each entry, its recorded switch fluorescence ratio.
1. TTCTACTTTT
2. TTGGTGCCCG
3. TGAGGGGGTT

Completion:
[1.01, 1.01, 0.997]

I would be grateful if you could provide switch fluorescence ratio for each of the following entries.
1. TTTAATGTAT
2. GTTACTGCTG
3. GAAATTCCGC
4. TATCGTATTG
5. GTTCGCAAAT
6. GACAGGTGCG
7. GCGTTTTGCA
8. GGGGTAATCC

Completion:
1: 1.19; 2: 1.03; 3: 1.27; 4: 0.979; 5: 1.09; 6: 1.27; 7: 0.978; 8: 1.07

For every item in the list below, what is its measured switch fluorescence ratio?
1. GCCGCCGTAA
2. TGTTGTGGGG
3. TAGGGGGTAC
4. TGCCGTAGTC
5. CGAGCAGTGG
6. CGTACTTGGG
7. ATCGGTACGT

Completion:
1.3
0.96
1.31
0.969
1.1
0.982
1.03

Each sequence below has a reported value. Please supply its switch fluorescence ratio.
1. TGGACGTGTC
2. GGTTGTAGGC
3. GAGATTTCAT
4. ATGTTGTAAC
5. GGTTGAGGG

Completion:
1. 1
2. 1.02
3. 0.982
4. 0.985
5. 0.997

List reported switch fluorescence ratio for each of these sequences:
1. TGACCTGCAC
2. ACTTGATCGC

Completion:
1. 1.51
2. 1.03

* * *

Test system: ATP;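 further: ATP exposure 15 min at 22 °C before imaging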
procedure summary: switch fluorescence ratio, 500 uM ATP over buffer (Cy3 cluster intensity, sum of 5 cycles each) (fold (ratio)); higher = stronger signal-on switching upon ATP binding; sequences stand for … in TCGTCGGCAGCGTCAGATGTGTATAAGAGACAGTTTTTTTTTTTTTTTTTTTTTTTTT…TC
measurement parameters: aptamer strand: ATP DNA aptamer (quencher-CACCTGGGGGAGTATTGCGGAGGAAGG + anchor), 100 nM annealed; ATP concentration: 500 uM
Classification field: 1 = switch fluorescence ratio at or over 1; 0 = switch fluorescence ratio under 1.

Reference set, count: 5
Prompt: In plain terms: is recorded switch fluorescence ratio at least 1 for `GGATTAGCAG` ?
Completion: 1

Prompt: Reported switch fluorescence ratio at or above 1? `GCACGTGACC`
Completion: 1

Prompt: Entry `CCTTAAGACA` : is its switch fluorescence ratio no less than 1?
Completion: 1

Prompt: Form field: switch fluorescence ratio at least 1? Entry: `GACATGGACG`
Completion: 1

Prompt: Determine whether this sequence has switch fluorescence ratio no lower than 1: `ACGCAACGCC`
Completion: 1

// next entry
Prompt: Please indicate if the recorded switch fluorescence ratio for `ATGCTTAGTC` meets or exceeds 1.
Completion: 0
